Assay: Human HepG2 cell viability assay in 384 well format
Format: toxicity, cell-based
Design: dose 125 nL, time 70.5 hour; concentration not given beside the values
Settings: HepG2 cells, read-out: Inhibition
As shown below, each of these compounds has a reported cytotoxicity at 70.5 h value.

# COMPOUND, cytotoxicity at 70.5 h / %
data = [
    ("CC/N=c1\\nc(NCC)nc2n1C(O)(Nc1cc(Cl)ccc1Cl)CS2 (stereo not drawn)", 17.8),
    ("CC(=O)N(C)c1nc(CN2CCCCC2Cn2cncn2)cs1 (stereo not drawn)", -6.38),
    ("Cc1ccc(F)cc1S(=O)(=O)NCc1cccnc1N(C)C", -10.3),
    ("CC(C)c1nccn1C1CCCN(C(=O)c2ccc3[nH]cnc3c2)C1 (stereo not drawn)", 8.82),
    ("Nc1no[n+]([O-])c1C(=O)NCc1ccco1", 7.08),
    ("CC(C)(C)OC(=O)N1CCN(C(=O)c2cnn3c2OCCC3)CC1", -0.601),
    ("Cc1csc(NC(=O)C2(C)CN(C)CCO2)n1 (stereo not drawn)", 1.56),
    ("COc1cc(NCC(O)CN2CCCCCC2)ncn1 (stereo not drawn)", -7.58),
    ("Cn1cnc(S(=O)(=O)N2C[C@@H]3CC[C@H](C2)N(Cc2cscn2)C3=O)c1", -6.52),
    ("Cc1cc(C(N)=O)ccc1NC(=O)c1nc(N2CCCC2)ncc1Cl", -4.63),
    ("CC(C)(C)n1ncc2c1NC(=O)CC2c1c(F)cccc1F (stereo not drawn)", -14.5),
    ("O=C(NC[C@H]1OC[C@@H](NC2COC2)[C@@H]1O)c1ccccc1", -6.48),
    ("Cn1cncc1CN1CCCC1c1cncc(Oc2ccc(Cl)cc2)n1 (stereo not drawn)", 8.74),
    ("Cc1cnn(CC(C)NCc2nc(-c3ccccn3)no2)c1 (stereo not drawn)", -7.46),
    ("N#Cc1cc(F)c(NCCc2cccnc2)c(F)c1", -4.91),
    ("Cn1c(Cl)cnc1CN1CCCC1c1ccc2c(c1)OCCO2 (stereo not drawn)", 19.4),
    ("Cc1ccc(C)c2c1NC(=O)C2CC(=O)O (stereo not drawn)", 2.65),
    ("O=C(Cn1cc(-c2ccccc2)ncc1=O)Nc1nnc[nH]1", -13.5),
]

---

Reported cytotoxicity at 70.5 h values for the following molecules.
Assay: Human HepG2 cell viability assay in 384 well format
Format: toxicity, cell-based
Parameters: dose 125 nL, time 70.5 hour; concentration not given beside the values
Conditions: HepG2 cells, read-out: Inhibition

# MOLECULE, cytotoxicity at 70.5 h (%)
data = [
    ("COC(=O)C1CCN(C(=O)CN2CCN(c3cccc(C)c3)CC2)CC1", -8.14),
    ("CC(C)NC(=O)c1ccc2c(c1)C(c1nc[nH]n1)CN2S(C)(=O)=O (stereo unspecified)", -14.8),
    ("Cc1ncc(-c2ccnc(N3CCCCCC3)n2)c(-c2cccnc2)n1", -10.6),
    ("CCOC(=O)C(C)NC(=O)N1CCN(c2nc3ccccc3n2C)CC1 (stereo unspecified)", -2.33),
    ("CC(CNC(=O)c1ccc(=O)[nH]n1)N1CCc2ccccc21 (stereo unspecified)", 2.77),
    ("O=S(=O)(CC1CCCCC1)NCc1ccnc(O)c1", -7.43),
    ("Cc1nonc1CN(C)CC1(O)CCCN(CCC2CCCCC2)C1=O (stereo unspecified)", 2.77),
    ("CNc1cccc(C2CCCN(C(=O)c3cnccn3)C2)n1 (stereo unspecified)", -0.4),
    ("O=C(CN1CCSCC1c1ccccc1)N1CCOCC1 (stereo unspecified)", -3.64),
    ("Cn1cccc1C(=O)NCc1cnc2n1CCN(C(=O)N1CCCC1)C2", -4.52),
    ("O=C(NC[C@]12COC[C@H]1CN(Cc1cccc(F)c1)C2)c1ccco1", -12.4),
]

---

Experiment: Human HepG2 cell viability assay in 384 well format
Assay type: toxicity, cell-based
Parameters: dose 125 nL, time 70.5 hour; concentration not given beside the values
Conditions: HepG2 cells, read-out: Inhibition
Let's look at some compounds and their measured cytotoxicity at 70.5 h.
READOUT_KIND: cytotoxicity at 70.5 h (%)

# COMPOUND, VALUE
data = [
    ("Cc1nc2ccccc2n1CCNCc1cccc(C#N)c1", -14.8),
    ("O=C1N(CC2CC2)C(c2c[nH]nc2-c2cccnc2)NC12CCCC2 (stereo not drawn)", -12.7),
    ("Cc1cc(NC(=O)C2CCCN(C(=O)NCC(C)C)C2)ccn1 (stereo not drawn)", -14.5),
    ("CCc1ccc(C2COCCN2C(=O)Nc2ccc(C(N)=O)c(Cl)c2)o1 (stereo not drawn)", -2.09),
    ("CC(CC#N)NC(=O)c1cc(Br)c2c(c1)OCCO2 (stereo not drawn)", 0.544),
    ("O=C(C1=CCCC1)N1C[C@H](Oc2cccnc2)[C@H]2OCCC[C@H]21", -4.92),
    ("CCc1cc(NCC(O)CN2CCCCC2)ncn1 (stereo not drawn)", -4.61),
    ("CCn1nc2c(cc1=O)CN(CC(=O)Nc1cc(C)no1)CC2", -0.888),
]

---

Test: Human HepG2 cell viability assay in 384 well format
Assay type: toxicity, cell-based
Set-up: dose 125 nL, time 70.5 hour; concentration not given beside the values
Conditions: HepG2 cells, read-out: Inhibition

# MOLECULE, ENDPOINT_UNIT, cytotoxicity at 70.5 h
rows = [
    ("CSCC[C@@H](CO)n1ccnc1-c1ccc(C)o1", "%", 0.0887),
    ("CN(C)C(=O)CN1CCC2(CCN(Cc3nccs3)CC2)C1=O", "%", 16.1),
    ("CCCc1cc(C(=O)NCCN2CCCS2(=O)=O)[nH]n1", "%", -7.48),
    ("CC(CNC(=O)c1cccc(-n2cccn2)n1)Cn1ccnc1 (centres undefined)", "%", -2.98),
    ("CN1CCN(C(=O)c2cc(-c3cnc(N4CCCC4)nc3)cn2C)CC1", "%", -21.9),
    ("COC(=O)c1cc(OCC2CCC2)cc(C(=O)N[C@H]2CCCC[C@@H]2O)c1", "%", -8.47),
    ("Cc1[nH]nc2ncc(C(=O)N3CCN(CCC(C)C)CC3)cc12", "%", 25.8),
    ("COc1cccc(CN2CCC3(CC(Nc4ccncn4)C3)C2)c1F (centres undefined)", "%", 2.19),
    ("CC(C)N(Cc1ccccn1)C(=O)CCOc1cccc(F)c1", "%", -4.61),
    ("CCn1nc(C)cc1C(=O)N1CC[C@H](OC)[C@H]2CN(CC3CC3)C[C@H]21", "%", 7.23),
    ("CN(CCc1ccccc1)C(=O)c1cccnc1OCC(F)(F)F", "%", 20),
    ("CC(=O)NS(=O)(=O)c1ccc2c(c1)N(C)CCC2", "%", -5.49),
    ("COC1CN(C(=O)NC2CCCC2)CCC(=O)N(C)c2ccccc21 (centres undefined)", "%", -1.11),
    ("CC(C)(C)NC(=O)C1CCCCN1Cc1nccn1CC(F)(F)F (centres undefined)", "%", -0.987),
]

---

Recorded cytotoxicity at 70.5 h for the following compounds
Experiment: Human HepG2 cell viability assay in 384 well format
Assay type: toxicity, cell-based
Set-up: dose 125 nL, time 70.5 hour; concentration not given beside the values
Settings: HepG2 cells, read-out: Inhibition

# COMPOUND, cytotoxicity at 70.5 h, %
data = [
    ("Cc1c(C(=O)N2CCCC(n3cccn3)C2)nnn1-c1ccccc1 (stereo unspecified)", -2.31),
    ("CCc1nc(NCCc2c(C)nn(CC)c2C)c2cnn(C)c2n1", -9.28),
    ("O=C(NC1CC1)c1cc(NC(=O)N2CCCC(O)C2)ccc1Cl (stereo unspecified)", -7.86),
    ("CC(C)Sc1ncccc1C(=O)NCc1ccoc1", -9.56),
    ("COc1ncc(CN2CCC3(CCCN(CC4CCC4)C3)C2)cn1 (stereo unspecified)", -1.38),
    ("OC[C@@H](O)CN(CCC(F)(F)F)c1ncc(Cl)cn1", -4.91),
    ("Cn1c(Cn2ccnc2)nnc1C1CCN(C(=O)c2ccoc2)CC1", -7.81),
    ("Cc1ccsc1C(O)CNC(=O)Cc1ccc(F)cc1 (stereo unspecified)", 25),
    ("CN(Cc1cccs1)C(=O)CN(C)C1CCc2ccccc21 (stereo unspecified)", -7.67),
    ("CCS(=O)(=O)N1CCC2(CC1)CN(Cc1ccccn1)C(=O)CO2", -11.1),
    ("CCN1CC(C(=O)NC(C)(C)CNC(=O)OC(C)(C)C)CC1=O (stereo unspecified)", -8.18),
    ("COc1ccc(CN2CC[C@H](NC(C)=O)[C@@H](O)CC2)c(OC)c1", -17.2),
    ("CC(C)c1cc(C(=O)NC2CCN(CC(N)=O)CC2)nn1C(C)(C)C", -10.3),
    ("Cc1ccc(CN(c2cc(C)nc3nc(C(F)(F)F)nn23)C2CC2)cc1", 0.825),
    ("Cc1ccc(S(=O)(=O)c2ncccc2CN2CCCC2)cc1", -22.8),
    ("c1ccc(CN2CCCC3(CCN(CC4CCCO4)CC3)C2)nc1 (stereo unspecified)", -9.93),
    ("CC(NC1(CNC(=O)C(C)(C)C#N)CCOCC1)c1ccccc1 (stereo unspecified)", 15.5),
    ("COc1ccc(C(=O)N2Cc3cc(C)ccc3OCC2CN(C)C)cc1 (stereo unspecified)", 3.28),
    ("O=C(c1ccncc1)N1CCN2C[C@H](Oc3cccc(F)c3)C[C@H]2C1", -0.421),
    ("COc1ccc(N)c(N2CCN(C(C)=O)CC2)n1", -11),
    ("CCn1nc(C)c(CNCCn2cc(C)cn2)c1C", -4.46),
    ("Cc1cnn(Cc2cc(F)ccc2F)c1NC(=O)C1CCOCC1", 1.07),
    ("O=C(NC[C@H]1OC[C@@H]2CCN(c3ncccn3)C[C@@H]21)c1ccnnc1", 1.23),
    ("CN(C)CC(=O)N1CCN(c2cc(N3CCCC3CO)ncn2)CC1 (stereo unspecified)", -6.08),
    ("Cn1cncc1C(=O)N1C[C@@H]2CCN(c3cnccn3)C[C@@H]2C1", -11.9),
    ("CCc1ccc(C(=O)N2CCCn3nnc(Cn4cccn4)c3C2)cc1", -5.86),
    ("Cc1ccc2nc(C3CCCN(CC(C)C)C3)nc(O)c2c1 (stereo unspecified)", -2.98),
    ("CC(c1ccc(F)cc1F)N1CCN(CCC(=O)NC(N)=O)CC1 (stereo unspecified)", -6.26),
    ("COc1ccc(CC(C)(O)CNC(=O)c2cccs2)cc1 (stereo unspecified)", -15.5),
    ("CC(NCc1ccccn1)c1ccc(N2CCN(C)CC2)c(F)c1 (stereo unspecified)", 11.1),
    ("CC(C)C(NC(=O)c1ccc(Cl)cc1Cl)C(=O)Nc1ccn(C)n1 (stereo unspecified)", 1.6),
    ("Cc1oncc1C(=O)N1CC[C@H]2C[C@H](c3ccncn3)O[C@@H]2C1", 7.58),
    ("CCNC(=O)[C@@H]1C[C@@H](NC(=O)CSC)CN1Cc1ccncc1", -10.5),
    ("CCc1nnc(CN2CCc3[nH]c(-c4ccc(OC)cc4)nc3C2)o1", -9.04),
    ("CCn1cc(CN2CCC(CNC(C)=O)CC2)cc1C#N", 0.676),
    ("CC(C)NC(=O)C1Cc2nc(-c3ccsc3)sc2N1CC1CC1 (stereo unspecified)", -6.43),
]
